Listed below are compounds with Ki for UniProt:P00742, each taken from published literature.
Write the answer as a number in nM, unit excluded.

CNC(=N)N(C)c1ccc(C(=O)Nc2ccc(C)cc2C(=O)Nc2ccc(Cl)cn2)cc1 = 0.5
CC(C)N1CCC(NC(=O)c2ccc(C(=O)N3CCCOCC3)n2Cc2cc(-c3ccc(Cl)s3)on2)CC1 = 249
CCCNC(=O)N(C1CCN(C(C)C)CC1)S(=O)(=O)CCNC(=O)c1ccc(Cl)s1 = 4
O=C1CCN(c2ccc(NC(=O)c3nc4ccccc4n3Cc3cc(-c4ccc(Cl)s4)on3)cc2)CC1 = 210
CCC(=O)N1CCC(CC[C@@H](NS(=O)(=O)Cc2ccccc2)C(=O)N[C@@H](CCC2CCNCC2)C(=O)NCc2ccc(C(=N)N)cc2)CC1 = 2300
CC(C)[C@@H](NC(=O)[C@H](NC(=O)c1cccc(C(=N)N)c1)c1ccccc1)C(N)=O = 162
CC(=N)N(C)c1ccc(C(=O)Nc2ccc(C)cc2C(=O)Nc2ccc(Cl)cn2)c(F)c1 = 0.8
CC(OC(=O)OC1CCCCC1)OC(=O)c1cccc2c1nc(C(=O)NC1CCN(C(C)C)CC1)n2Cc1cc(-c2ccc(Cl)s2)on1 (stereo not drawn) = 31
COC1CN(C(=O)c2cn(Cc3cc(-c4ccc(Cl)s4)on3)c(C(=O)NC3CCN(C(C)C)CC3)n2)C1 = 91
COCCOC(=O)c1cc(C(=O)NC2CCN(C(C)C)CC2)n(CC(=O)Nc2ccc(Cl)cn2)n1 = 16

Field Ki (UniProt:P00742), entry Cc1ncc(COc2ccc(C(=N)N)cc2)c(C(F)F)c1OCc1ccc(C(=N)N)cc1 : 19000

Field Ki (UniProt:P00742), entry N=C(N)c1ccc2[nH]c(-c3nccn3CCCC(=O)N3CCOCC3)nc2c1 : 2

Field Ki (UniProt:P00742), entry CC(C)N1CCC(NC(=O)c2nc3cc(C(=O)O)ccc3n2Cc2cnc(-c3ccc(Cl)s3)s2)CC1 : 94

====

Listed below are compounds with pKi for Coagulation factor X (Homo sapiens, UniProt P00742), each taken from published literature.
Units for pKi: none; it is -log10 of a concentration expressed in mol/L.

See these solved cases before continuing.
CC(C)N1CCC(NC(=O)c2nc(C(=O)OCC3CC3)cn2Cc2cc(-c3ccc(Cl)s3)on2)CC1 = 7.24
CC(C)N1CCC(NC(=O)c2cc(-c3cccs3)nn2Cc2cc3ccc(Cl)cc3s2)CC1 = 7.89
N[C@H]1C[C@@H](C(=O)NCc2cc(Cl)ccc2-n2cnnn2)N(C(=O)[C@@H](CCC(=O)N2CCOCC2)NS(=O)(=O)Cc2ccccc2)C1 = 9.49
NCc1ccc(Cl)cc1CNC(=O)[C@@H]1CCCN1C(=O)[C@@H](CCC(=O)N1CCNCC1)NS(=O)(=O)Cc1ccccc1 = 7.68
CC(C)N1CCC(NC(=O)c2cc(C(=O)OCCO)nn2CC(=O)Nc2ccc(Cl)cn2)CC1 = 7.70
CC(C)N1CCC(NC(=O)c2cnc(-c3c(F)cccc3F)n2Cc2cc(-c3ccc(Cl)s3)on2)CC1 = 7.74
O=C(NC1CCN(c2ccncn2)CC1)c1nc2ccccc2n1Cc1cc(-c2ccc(Cl)s2)on1 = 7.23
CC(C)N1CCC(NC(=O)c2nn(Cc3cc(-c4ccc(Cl)s4)on3)c3ccc(C(=O)N(C)CC(=O)O)cc23)CC1 = 7.82
CNC(=O)N(C)c1ccc(C(=O)Nc2ccc(C)cc2C(=O)Nc2ccc(Cl)cn2)cc1 = 9.82
N=C(N)c1ccc(/C=C2/CCCCCCC/C(=C\c3ccc(C(=N)N)cc3)C2=O)cc1 = 6.29

Reported pKi ( CC(C)N1CCC(N(CC(=O)N(C)C)S(=O)(=O)CCNC(=O)c2ccc(Cl)s2)CC1 ) = 8.30

Reported pKi ( CC(C)N1CCC(N(CC(N)=O)S(=O)(=O)CCNC(=O)c2ccc(Cl)s2)CC1 ) = 8.52

Reported pKi ( CCCc1c(C#N)c(C(=O)NC2CCN(C(C)C)CC2)nn1Cc1cc(-c2ccc(Cl)s2)on1 ) = 7.08

Reported pKi ( CC(C)N1CCC(NC(=O)c2cncn2CC(=O)Nc2ccc(Cl)cn2)CC1 ) = 6.85

Reported pKi ( CC(C)N1CCC(NC(=O)c2nn(Cc3cc(-c4ccc(Cl)s4)on3)c3ccc(C(=O)NCC(F)(F)F)cc23)CC1 ) = 7.41

Reported pKi ( CN1CCC(C2CCN(C(=O)[C@H](NC(=O)c3ccc4ccnc(N)c4c3)c3ccccc3)CC2)CC1 ) = 8.10

Reported pKi ( CC(C)N1CCC(NS(=O)(=O)CCNC(=O)c2ccc(Br)o2)CC1 ) = 5.50

Reported pKi ( COC(=O)c1cccc(CNC(=O)c2cc3c(O)cccc3n2Cc2cccc(C(=N)N)c2)c1 ) = 5.70

Reported pKi ( CC(C)N1CCC(NC(=O)c2cc(C(=O)N3CCN(CCO)CC3)nn2Cc2cc(-c3ccc(Cl)s3)on2)CC1 ) = 6.58

Reported pKi ( NCc1ccc(Cl)cc1CNC(=O)[C@@H]1CCCN1C(=O)[C@@H](CC(=O)N1CC[C@@H](N)C1)NS(=O)(=O)Cc1ccccc1 ) = 7.85

====

Listed below are molecules with Ki for Coagulation factor X (Homo sapiens, UniProt P00742), each taken from published literature.

CS(=O)(=O)N1CCC(n2nc(C(N)=O)cc2C(=O)NC2CCN(N3CCOCC3=O)CC2)CC1 = 0.05 to 1 µM
COC1CCC(n2nc(C(N)=O)cc2C(=O)NC2CCN(N3CCOCC3=O)CC2)CC1 (stereo not drawn) = 0.05 to 1 µM
COc1ccc(-n2nc(/C(N)=N\C#N)c3c2C(=O)N(C2CCN(N4CCCCC4=O)CC2)CC3)cc1 = ≤ 0.01 µM

Field Ki (Coagulation factor X (Homo sapiens, UniProt P00742)), entry CCc1nc(C(=O)NC2CCN(C(C)C)CC2)c(C)n1Cc1cc(-c2ccc(Cl)s2)on1 : 0.53 µM

Field Ki (Coagulation factor X (Homo sapiens, UniProt P00742)), entry CC1(C)[C@@H]2C[C@H]3OB([C@H](CCCCN)NC(=O)Cn4nc(-c5cccc(N)c5)nc4Cc4ccccc4)O[C@@]3(C)[C@H]1C2 : 0.5 to 50 µM

Field Ki (Coagulation factor X (Homo sapiens, UniProt P00742)), entry NC(=O)c1cc(-n2nc(C(F)(F)F)c3c2C(=O)N(C2CCN(N4CCOCC4=O)CC2)CC3)ccc1F : 0.05 to 1 µM

Field Ki (Coagulation factor X (Homo sapiens, UniProt P00742)), entry CC(=O)N[C@H](Cc1ccccc1)C(=O)N1CCCC1C(=O)NC(CC1CCC(N)CC1)B1OC2CC3CC(C3(C)C)C2(C)O1 (stereo partly drawn) : < 50 µM

Field Ki (Coagulation factor X (Homo sapiens, UniProt P00742)), entry CC1(C)C2CC3OB([C@H](CCCNC(=N)N)NC(=O)Cn4nc(Cc5ccccc5)nc4-c4cccc([N+](=O)[O-])c4)OC3(C)C1C2 (single isomer, unassigned) : < 0.5 µM

Field Ki (Coagulation factor X (Homo sapiens, UniProt P00742)), entry N=C(N)c1ccc(CNC(=O)[C@H](CCC2CCNCC2)NC(=O)[C@@H](CCCc2ccccc2)NS(=O)(=O)Cc2cccc(C(=O)O)c2)cc1 : 2.4 µM

Field Ki (Coagulation factor X (Homo sapiens, UniProt P00742)), entry Cc1ncc(CNc2ccc(-c3ccc(C(=N)N)cc3)cc2)c(CNCCCCCC(=O)O)c1OCc1ccc(C(=N)N)cc1 : 6.2 µM

Field Ki (Coagulation factor X (Homo sapiens, UniProt P00742)), entry N=C(N)c1ccc(CNC(=O)c2cnn(Cc3ccccc3)c2)cc1 : 85 µM

Field Ki (Coagulation factor X (Homo sapiens, UniProt P00742)), entry CC(C)N1CCC(NC(=O)c2c(C#N)c(-c3cccs3)nn2Cc2ccc(Cl)cc2)CC1 : 0.274 µM

Field Ki (Coagulation factor X (Homo sapiens, UniProt P00742)), entry CC(C)N1CCC(NC(=O)c2cc(-c3cccs3)nn2Cc2csc(-c3ccc(Cl)s3)n2)CC1 : 0.046 µM

Field Ki (Coagulation factor X (Homo sapiens, UniProt P00742)), entry NC(=O)c1nn(-c2ccc(OC(F)F)cc2)c2c1CCN(C1CCN(N3CCOCC3=O)CC1)C2=O : ≤ 0.01 µM

Field Ki (Coagulation factor X (Homo sapiens, UniProt P00742)), entry COc1ccc(-n2nc(C(F)(F)F)c3c2C(=O)N(C2CCN(N4CCOCC4=O)CC2)CC3)cc1 : ≤ 0.01 µM

Field Ki (Coagulation factor X (Homo sapiens, UniProt P00742)), entry CC(C)N1CCC(NC(=O)c2cc(-c3n[nH]c(=O)o3)nn2Cc2cc(-c3ccc(Cl)s3)on2)CC1 : 0.155 µM

Field Ki (Coagulation factor X (Homo sapiens, UniProt P00742)), entry CC1(C)C2CC3OB([C@H](CCCCN)NC(=O)Cn4nc(CO)nc4CCc4ccccc4)OC3(C)C1C2 (single isomer, unassigned) : 0.5 to 50 µM

Field Ki (Coagulation factor X (Homo sapiens, UniProt P00742)), entry CNC1CCc2cc(N3CC[C@H](N(C)S(=O)(=O)c4ccc5cc(Cl)ccc5c4)C3=O)ccc21 (stereo partly drawn) : < 0.05 µM
